Where these numbers come from: ChEMBL document CHEMBL1144838

target: Tripeptidyl-peptidase 2 (Homo sapiens)
Sequence (P29144 whole entry): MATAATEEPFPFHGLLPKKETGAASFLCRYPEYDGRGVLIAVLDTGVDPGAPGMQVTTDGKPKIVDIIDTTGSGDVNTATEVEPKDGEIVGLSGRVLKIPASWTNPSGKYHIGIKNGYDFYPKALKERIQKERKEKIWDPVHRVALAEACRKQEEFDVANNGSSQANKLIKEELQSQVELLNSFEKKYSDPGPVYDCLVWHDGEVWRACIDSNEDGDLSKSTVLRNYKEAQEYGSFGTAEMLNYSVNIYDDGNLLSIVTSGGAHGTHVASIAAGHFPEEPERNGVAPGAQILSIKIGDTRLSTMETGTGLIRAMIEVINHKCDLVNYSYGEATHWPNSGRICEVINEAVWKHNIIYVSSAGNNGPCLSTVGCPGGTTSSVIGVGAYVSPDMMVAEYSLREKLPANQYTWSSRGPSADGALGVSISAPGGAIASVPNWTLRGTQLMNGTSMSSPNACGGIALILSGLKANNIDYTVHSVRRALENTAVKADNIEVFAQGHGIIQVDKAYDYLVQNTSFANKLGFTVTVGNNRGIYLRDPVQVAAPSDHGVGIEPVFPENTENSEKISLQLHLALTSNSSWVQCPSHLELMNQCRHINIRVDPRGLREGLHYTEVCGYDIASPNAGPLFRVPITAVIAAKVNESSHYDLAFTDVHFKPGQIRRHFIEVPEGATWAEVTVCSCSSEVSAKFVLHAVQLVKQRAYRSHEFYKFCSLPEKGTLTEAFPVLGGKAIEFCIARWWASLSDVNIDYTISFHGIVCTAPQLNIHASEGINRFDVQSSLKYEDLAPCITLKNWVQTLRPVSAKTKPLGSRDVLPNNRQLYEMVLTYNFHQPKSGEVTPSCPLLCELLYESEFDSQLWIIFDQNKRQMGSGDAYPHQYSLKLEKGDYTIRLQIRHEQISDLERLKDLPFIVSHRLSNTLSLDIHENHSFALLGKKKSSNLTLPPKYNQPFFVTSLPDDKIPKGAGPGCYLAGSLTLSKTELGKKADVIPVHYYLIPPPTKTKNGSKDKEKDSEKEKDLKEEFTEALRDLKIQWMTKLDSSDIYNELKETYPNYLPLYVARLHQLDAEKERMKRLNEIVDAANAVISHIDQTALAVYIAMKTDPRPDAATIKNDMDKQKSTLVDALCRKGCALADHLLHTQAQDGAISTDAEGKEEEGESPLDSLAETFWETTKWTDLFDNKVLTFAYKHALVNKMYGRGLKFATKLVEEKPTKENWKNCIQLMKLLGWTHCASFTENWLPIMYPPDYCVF
Non-standard residues stand in square brackets, D forms with d. Residues, ends and D or L forms follow the SMILES beside them. Dha = C=C(N)C(=O)O

{"COMPOUND": "C=C(NC(=O)[C@H](C)NC(=O)[C@@H](N)CCCNC(=N)N)C(=O)N[C@H](C(=O)N[C@@H](C)C(=O)O)C(C)C (H-RA[Dha]VA-OH)", "TARGET UNDER TEST": "Tripeptidyl-peptidase 2 (Homo sapiens)", "Ki (nM)": 20}
